Give measured IC50 for each item. Keep answers brief.
- target or system: HCV NS3/4A protease complex, BMS strain (UniProt P27958, species not given/STRAIN_BMS)
- Construct: other: NS3/4A BMS strain; activity range class; numeric values, unit not given; said of H77 and J4L6S; fused on or other part: A three-lysine solubilising tail at the C-terminus of NS4A; A His tag is implied by the pET21b vector and Ni-NTA purification; Both are printed for the H77 and J4L6S constructs and apply to BMS by inference
- Sequence (P27958 1027-1657, change not shown, one chain of several): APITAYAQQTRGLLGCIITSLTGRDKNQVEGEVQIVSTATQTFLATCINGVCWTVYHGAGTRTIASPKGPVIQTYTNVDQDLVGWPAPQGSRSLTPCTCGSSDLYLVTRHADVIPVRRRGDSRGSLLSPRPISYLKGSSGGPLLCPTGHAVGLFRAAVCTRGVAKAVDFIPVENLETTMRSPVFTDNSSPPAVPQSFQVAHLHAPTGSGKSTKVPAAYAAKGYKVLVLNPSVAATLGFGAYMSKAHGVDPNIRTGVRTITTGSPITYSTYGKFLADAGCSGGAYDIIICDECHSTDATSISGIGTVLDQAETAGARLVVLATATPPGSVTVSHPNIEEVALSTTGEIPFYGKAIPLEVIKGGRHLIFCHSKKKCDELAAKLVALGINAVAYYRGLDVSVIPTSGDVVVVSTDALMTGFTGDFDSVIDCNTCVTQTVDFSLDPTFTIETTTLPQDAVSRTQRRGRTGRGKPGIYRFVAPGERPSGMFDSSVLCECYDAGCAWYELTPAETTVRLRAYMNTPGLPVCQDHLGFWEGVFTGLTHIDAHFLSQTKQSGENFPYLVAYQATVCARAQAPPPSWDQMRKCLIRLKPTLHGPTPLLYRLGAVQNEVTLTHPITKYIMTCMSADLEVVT
- method description: FRET peptide assay to monitor HCV NS3/4A proteolytic activity (BMS strain)
- Type: biochemical, Hepatitis C virus (genotype 1a)
- conditions: read-out: HCV Protease (IC50); NS3/4A BMS strain; activity range class

Could you tell me which IC50 is on file for C=C[C@@H]1C[C@]1(NC(=O)[C@@H]1C[C@@H](Oc2ncc(OC)c3ccc(Cl)cc23)CN1C(=O)[C@@H](Nc1cccc(C(=O)OC(C)(C)C)c1)C(C)(C)C)C(=O)NS(=O)(=O)C1CC1 [210 first isomer] ?
0.6 to 20 nM

Same question, C=C[C@@H]1C[C@]1(NC(=O)[C@@H]1C[C@@H](Oc2nccc3cc(OC)ccc23)CN1C(=O)C(Nc1cc(C#N)ccn1)C(C)C)C(=O)NS(=O)(=O)C1CC1 (mixture of isomers) this time
0.6 to 20 nM

Field entry: C=C[C@@H]1C[C@]1(NC(=O)[C@@H]1C[C@@H](Oc2ncc(OC)c3ccc(Cl)cc23)CN1C(=O)[C@@H](Nc1ccc(C(=O)N(C)C)cc1)C(C)(C)C)C(=O)NS(=O)(=O)C1CC1 [221 first isomer]
0.6 to 20 nM

Follow-up item: C=C[C@@H]1C[C@]1(NC(=O)[C@@H]1C[C@@H](Oc2ncc(OC)c3ccc(Cl)cc23)CN1C(=O)C(CC)Nc1nsnc1OC)C(=O)CS(=O)(=O)C1CC1 (stereo partly shown)
> 200 nM

Quick one: C=C[C@@H]1C[C@]1(NC(=O)[C@@H]1C[C@@H](Oc2ncc(OC)c3ccc(Cl)cc23)CN1C(=O)[C@@H](Nc1cccc(S(N)(=O)=O)c1)C(C)(C)C)C(=O)NS(=O)(=O)C1CC1 [207 first isomer]
0.6 to 20 nM

Next compound: C=C[C@@H]1C[C@]1(NC(=O)[C@@H]1C[C@@H](Oc2ncc(OC)c3ccc(Cl)cc23)CN1C(=O)[C@@H](Nc1cccc(S(=O)(=O)NC(C)(C)C)c1)C(C)(C)C)C(=O)NS(=O)(=O)C1CC1 [206 first isomer]
0.6 to 20 nM

Next record, please: C=C[C@@H]1C[C@]1(NC(=O)[C@@H]1C[C@@H](Oc2nccc3cc(OC)ccc23)CN1C(=O)[C@@H](Nc1ccccn1)C(C)(C)C)C(=O)NS(=O)(=O)C1CC1 [12 first isomer]
0.6 to 20 nM

Try this compound next: "C=C[C@@H]1C[C@]1(NC(=O)[C@@H]1C[C@@H](Oc2nccc3cc(OC)ccc23)CN1C(=O)[C@@H](Nc1cc(C)cc(C)n1)C(C)C)C(=O)NS(=O)(=O)C1CC1"
0.6 to 20 nM

Query C=C[C@@H]1C[C@]1(NC(=O)[C@@H]1C[C@@H](Oc2ncc(OC)c3ccc(Cl)cc23)CN1C(=O)[C@@H](Nc1ccc(S(N)(=O)=O)cc1)C(C)(C)C)C(=O)NS(=O)(=O)C1CC1 [Compound 215A] next
0.6 to 20 nM

Try C=C[C@@H]1C[C@]1(NC(=O)[C@@H]1C[C@@H](Oc2ncc(OC)c3ccc(Cl)cc23)CN1C(=O)[C@@H](Nc1cccc(F)c1F)C(C)(C)C)C(=O)NS(=O)(=O)C1CC1 [208 first isomer] next.
0.6 to 20 nM

Queued: C=C[C@@H]1C[C@]1(NC(=O)[C@@H]1C[C@@H](Oc2ncc(OC)c3ccc(Cl)cc23)CN1C(=O)[C@H](CC)Nc1nsnc1OCC)C(=O)NS(=O)(=O)C1CC1 [Compound 233A]
20 to 200 nM

// query: C=C[C@@H]1C[C@]1(NC(=O)[C@@H]1C[C@@H](Oc2ncc(OC)c3ccc(Cl)cc23)CN1C(=O)C(Nc1ccc(OC)nc1)C(C)(C)C)C(=O)NS(=O)(=O)C1CC1 (single isomer, unassigned) [408 first isomer]
0.6 to 20 nM

# iterate: C=C[C@@H]1C[C@]1(NC(=O)[C@@H]1C[C@@H](Oc2ncc(OC)c3ccc(Cl)cc23)CN1C(=O)C(Nc1ccc(C)nc1)C(C)(C)C)C(=O)NS(=O)(=O)C1CC1 (single isomer, unassigned) [26 first isomer]
0.6 to 20 nM

Please do the same for C=C[C@@H]1C[C@]1(NC(=O)[C@@H]1C[C@@H](Oc2nc(OC)cc3cc(OC)ccc23)CN1C(=O)C(Nc1cc(C)cc(C)n1)C(C)C)C(=O)NS(=O)(=O)C1CC1 (stereo partly shown) as well.
0.6 to 20 nM

What do you have for C=C[C@@H]1C[C@]1(NC(=O)[C@@H]1C[C@@H](Oc2ncc(OC)c3ccc(Cl)cc23)CN1C(=O)C(Nc1cncnc1)C(C)C)C(=O)NS(=O)(=O)C1CC1 (single isomer, unassigned) [24 second isomer] ?
> 200 nM

Follow-up item: C=C[C@@H]1C[C@]1(NC(=O)[C@@H]1C[C@@H](Oc2ncc(OC)c3ccc(Cl)cc23)CN1C(=O)[C@H](Nc1cccc(C(=O)O)c1)C(C)(C)C)C(=O)NS(=O)(=O)C1CC1 [211 second isomer]
> 200 nM

Same again, this time with C=C[C@@H]1C[C@]1(NC(=O)[C@@H]1C[C@@H](Oc2nc3c(c4cc(OC)ccc24)OCCN3C)CN1C(=O)[C@H](Nc1ccc(F)c(F)c1)C(C)(C)C)C(=O)NS(=O)(=O)C1CC1 [235 second isomer]
0.6 to 20 nM

Would you mind doing C=C[C@@H]1C[C@]1(NC(=O)[C@@H]1C[C@@H](Oc2ncc(OC)c3ccc(Cl)cc23)CN1C(=O)[C@H](Nc1cccc(S(=O)(=O)N(C)C)c1)C(C)(C)C)C(=O)NS(=O)(=O)C1CC1 [219 second isomer] as well?
0.6 to 20 nM

Query C=C[C@@H]1C[C@]1(NC(=O)[C@@H]1C[C@@H](Oc2ncc(OC)c3ccc(Cl)cc23)CN1C(=O)C(Nc1nsnc1OCC)C(C)(C)C)C(=O)NS(=O)(=O)C1CC1 (stereo partly shown) next
0.6 to 20 nM
